assay: Unbound Cmax in Sprague-Dawley rat at 3 mg/kg, po measured upto 24 hrs; type: ADME, organism-based; conditions: in vivo
compounds and their reported log10 of fCmax
MEASUREMENT_LABEL: log10 of fCmax (log10 of the value in nM)

CHEMICAL_STRING	log10 of fCmax
CNC(=O)c1n[nH]c2c(F)c(-c3c(F)ccc(NS(=O)(=O)c4cc(Cl)cnc4OC)c3F)ccc12	1.30
CNC(=O)c1ncn2cc(-c3c(F)ccc(NS(=O)(=O)c4cc(Cl)cnc4OC)c3F)ccc12	0.79
COc1ncc(Cl)cc1S(=O)(=O)Nc1ccc(F)c(-c2ccc3c(-c4ncc[nH]4)ncn3c2)c1F	1.20
CNC(=O)c1ncn2cc(-c3c(F)ccc(NS(=O)(=O)c4cc(Cl)cnc4OC)c3F)ncc12	0.85
CNC(=O)c1ncn2cc(-c3c(F)ccc([N-]S(=O)(=O)c4cc(Cl)cnc4OC)c3F)ncc12.[K+]	1.45
CNC(=O)c1ncn2c1CC[C@H](c1c(F)ccc(NS(=O)(=O)c3cc(F)cnc3OC)c1F)C2	2.26
COc1ncc(Cl)cc1S(=O)(=O)Nc1ccc(F)c(-c2ccc3c(-c4ncc[nH]4)n[nH]c3c2F)c1F	-0.51
